The reported numbers originate from PubChem BioAssay (NCI).

Measured GI50 accompanies every entry in the list below.
Test system: MALME-3M melanoma
procedureDetails: NCI tumour cell line growth inhibition, 48 h

compoundString	GI50
O=c1c2cc(F)ccc2sc2c(Nc3ccncc3)nc3ccccc3c12	1.74 µM
NCCCCCCCCCCn1c2c(c3ccccc3c1=O)C(=O)c1ccccc1-2	13.2 µM
C[C@@]1(C(=O)Nc2ccc(F)nc2)CCCN1c1nc(Nc2cc(C3CC3)[nH]n2)c2cccn2n1	11.7 µM
Cn1ccc(=O)c2c(O)c3ccccc3c(O)c21	> 100 µM

====

Test system: RPMI-8226 leukemia
procedureDetails: NCI tumour cell line growth inhibition, 48 h
reportedMetric: log10 of TGI (log10 of the value in µM)

compound	targetSystem	log10 of TGI
CCOc1ccc(N=Nc2ccc3oc(=O)c(/C(C)=N/NC(=O)CC(=O)Nc4cccc(OC)c4)cc3c2)cc1	RPMI-8226 leukemia	1.73
CC(=O)O[C@H]1C(=O)[C@@]2(C)[C@H]([C@H](OC(=O)c3ccccc3)[C@]3(O)C[C@H](OC(=O)[C@H](O)[C@@H](NC(=O)c4ccccc4)c4ccccc4C)C(C)=C1C3(C)C)[C@]1(OC(C)=O)CO[C@@H]1C[C@@H]2O	RPMI-8226 leukemia	0.01
O=C(CCc1n[nH]c(=S)o1)Nc1ccc(Cl)cc1Cl	RPMI-8226 leukemia	1.65
Oc1ccc(O)c(Cc2ccccc2)c1	RPMI-8226 leukemia	1.33
CCO/C=N/C1=C(C#N)C(c2ccc(OC)cc2)c2sc3c(F)cccc3c2O1 (centres undefined)	RPMI-8226 leukemia	1.21
COc1cc([C@@H]2c3cc4c(cc3[C@@H](Nc3ccc(N=Cc5ccc(C(=O)O[C@@H](C(=O)O[C@H]6C[C@@]7(O)[C@@H](OC(=O)c8ccccc8)[C@@H]8[C@]9(OC(C)=O)CO[C@@H]9C[C@H](O)[C@@]8(C)C(=O)[C@H](OC(C)=O)C(=C6C)C7(C)C)[C@@H](NC(=O)c6ccccc6)c6ccccc6)cc5)cc3)[C@H]3COC(=O)[C@H]23)OCO4)cc(OC)c1O	RPMI-8226 leukemia	1.45
